Quick note: these are pIC50 numbers for system: OGG1 (Homo sapiens (Human), UniProt O15527)
Sequence (O15527 whole entry): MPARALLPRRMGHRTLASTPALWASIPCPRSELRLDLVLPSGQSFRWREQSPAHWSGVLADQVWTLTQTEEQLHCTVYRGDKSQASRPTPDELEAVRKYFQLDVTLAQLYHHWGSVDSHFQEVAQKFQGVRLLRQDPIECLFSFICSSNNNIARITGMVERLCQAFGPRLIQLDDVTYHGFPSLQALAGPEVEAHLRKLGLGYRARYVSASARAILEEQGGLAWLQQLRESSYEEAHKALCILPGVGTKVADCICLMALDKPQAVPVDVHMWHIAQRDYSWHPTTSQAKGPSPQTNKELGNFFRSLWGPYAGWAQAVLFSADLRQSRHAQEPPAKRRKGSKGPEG
pIC50: −log10 of the molar value.
PROPERTY_MEASURED: pIC50

molecular_string=CCOc1ccc(S(=O)(=O)Nc2ccc3c(c2)N(C(=O)C2CC2)CCC3)cc1 property_measured=pIC50 quantitative_readout=5.96
molecular_string=NC(=O)c1cccc(-c2ccc(S(=O)(=O)Nc3ccc4c(c3)N(C(=O)C3CC3)CCC4)cc2)c1 property_measured=pIC50 quantitative_readout=7.23
molecular_string=O=C(C1CC1)N1CCCc2ccc(NS(=O)(=O)c3ccc(Oc4ccccc4)cc3)cc21 property_measured=pIC50 quantitative_readout=5.82
